# test.name: ATG_TAL_CIS: Attagene CIS-FACTORIAL HepG2 Assay for human TAL Basal Promoter (AID 2282966);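 note: background control endpoint measuring basal TAL promoter reporter mRNA not a specific factor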
# protocol.conditions: HepG2 Attagene cis-factorial TAL promoter reporter; actives raise or lower the signal
The source made the active and inactive calls. Rule for the calls: active = hit-call score of the fitted dose curve at least 0.9, where 1 is the maximum; inactive = score below 0.9.
Mark one answer only. Choices: TRUE (active), FALSE (inactive)

Q. Look up the recorded call for `CCN(Cc1cccc(S(=O)(=O)O)c1)c1ccc(C(=C2C=CC(=[N+](CC)Cc3cccc(S(=O)(=O)O)c3)C=C2)c2ccccc2S(=O)(=O)[O-])cc1` in this test.
A. FALSE

Q. Look up the recorded call for `CCCCOC(=O)CC(CC(=O)OCCCC)(OC(C)=O)C(=O)OCCCC` in this test.
A. FALSE

Q. Look up the recorded call for `CC(C)(C)c1cc(/C=C2\SC(N)=NC2=O)cc(C(C)(C)C)c1O` in this test.
A. FALSE

Q. Look up the recorded call for `CCO[Si](CCCNC(N)=O)(OCC)OCC` in this test.
A. FALSE

Q. Look up the recorded call for `Cc1cccc2ccccc12` in this test.
A. FALSE

Q. Look up the recorded call for `COc1cc(C(=O)NC2CCN(C)CC2)ccc1Nc1ncc2c(n1)N(C1CCCC1)CC(F)(F)C(=O)N2C` in this test.
A. FALSE

Q. Look up the recorded call for `c1ccc2n[nH]nc2c1` in this test.
A. FALSE

Q. Look up the recorded call for CC(O)CC(C)(C)O (stereo not drawn) in this test.
A. FALSE

Q. Look up the recorded call for `c1ccc(C[n+]2cccc3ccccc32)cc1` in this test.
A. FALSE

Q. Look up the recorded call for `Cc1cc(F)ccc1-c1cc(N2CC[C@@H](O)[C@H]2CO)ncc1N(C)C(=O)C(C)(C)c1cc(C(F)(F)F)cc(C(F)(F)F)c1` in this test.
A. FALSE

Q. Look up the recorded call for `CN1C(=O)CC[C@H]1c1cccnc1` in this test.
A. FALSE

Q. Look up the recorded call for `O=C(OCCCCCCOC(=O)c1ccccc1)c1ccccc1` in this test.
A. FALSE

Q. Look up the recorded call for `Cc1cc2c(cc1C(F)(F)F)N(C(=O)Nc1ccc(Oc3cccnc3C)nc1)CC2` in this test.
A. FALSE

Q. Look up the recorded call for `C[C@]12CC[C@@H]3c4ccc(O)cc4CC[C@H]3[C@@H]1CCC2=O` in this test.
A. FALSE

Q. Look up the recorded call for `c1ccc2ccccc2c1` in this test.
A. FALSE

Q. Look up the recorded call for `O=CCCCC=O` in this test.
A. FALSE

Q. Look up the recorded call for `CCCCCCCCN(C)CCCCCCCC` in this test.
A. FALSE

Q. Look up the recorded call for `CCCOC(=O)c1cc(O)c(O)c(O)c1` in this test.
A. FALSE

Q. Look up the recorded call for `CC(C)(C)c1csc(-c2cc3cc(OCc4ccccc4CC(=O)O)ccc3o2)n1` in this test.
A. FALSE

Q. Look up the recorded call for CN1C(=O)N(c2ccccc2Br)Cc2cnc(Nc3ccc4c(c3)OCC(CO)O4)nc21 (stereo not drawn) in this test.
A. TRUE

Q. Look up the recorded call for `CC(=O)N1CCN(c2ccc(OC[C@H]3CO[C@](Cn4ccnc4)(c4ccc(Cl)cc4Cl)O3)cc2)CC1` in this test.
A. FALSE

Q. Look up the recorded call for `Cc1oc2c(NC(=O)c3c(Cl)cccc3Cl)cccc2c1C(C)(C)O` in this test.
A. TRUE

Q. Look up the recorded call for `CCN(Cc1cccnc1)C(=O)c1cccc(Cl)c1[C@]1(C)C(=O)N(Cc2ccc(OC)cc2OC)c2ccc(Cl)cc21` in this test.
A. FALSE

----------
# Read-out: Interleukin-1 alpha (IL1a), IL1A (gene 3552)
# test.name: BSK_KF3CT_IL1a: BioMAP Diversity Plus: KF3CT Assay for Interleukin-1 alpha (IL1a) Biomarker Activity (AID 2283070)
# protocol.conditions: primary human keratinocytes with fibroblasts; actives raise or lower the signal
Calls of active or inactive are those of the source. The calls were made as follows: active = hit-call score of the fitted dose curve at least 0.9, where 1 is the maximum; inactive = score below 0.9.
property.name: AC50

Here are 8 molecules together with their reported answers.
{"substance.smiles": "O=C(OCCCCCCOC(=O)c1ccccc1)c1ccccc1", "AC50": "inactive"}
{"substance.smiles": "O=C(O)c1ccccc1-n1cc(C(=O)O)c(=O)c2cc(Nc3c(F)cc(F)cc3Cl)c(Cl)cc21", "AC50": "inactive"}
{"substance.smiles": "CC[C@@H]1C[C@H](N(Cc2cc(C(F)(F)F)cc(C(F)(F)F)c2)C(C)=O)c2cc(C(F)(F)F)ccc2N1C(=O)OC(C)C", "AC50": "inactive"}
{"substance.smiles": "CCCCOC(=O)CC(CC(=O)OCCCC)(OC(C)=O)C(=O)OCCCC", "AC50": "inactive"}
{"substance.smiles": "c1ccc2ccccc2c1", "AC50": "inactive"}
{"substance.smiles": "C[C@]12CC[C@@H]3c4ccc(O)cc4CC[C@H]3[C@@H]1CC[C@H]2O", "AC50": "inactive"}
{"substance.smiles": "OCCO", "AC50": "inactive"}
{"substance.smiles": "O=C1O[C@H]([C@@H](O)CO)C(O)=C1O", "AC50": "inactive"}

Q. Can you share its AC50? I mean this molecule: `CCCCCCCCOC(=O)c1cc(O)c(O)c(O)c1`
A. 25.5 µM (active)

Q. Can you share its AC50? I mean this molecule: `COc1cc(C(=O)NC2CCN(C)CC2)ccc1Nc1ncc2c(n1)N(C1CCCC1)CC(F)(F)C(=O)N2C`
A. 7.74 µM (active)

Q. Can you share its AC50? I mean this molecule: `Oc1ccccc1`
A. inactive

Q. Can you share its AC50? I mean this molecule: `Cc1cccc2ccccc12`
A. inactive

----------
# Read-out: TIMP metallopeptidase inhibitor 1 (TIMP1), TIMP1 (gene 7076)
# test.name: BSK_hDFCGF_TIMP1: BioMAP Diversity Plus: hDFCGF Assay for TIMP metallopeptidase inhibitor 1 (TIMP1) Biomarker Activity (AID 2283062)
# protocol.conditions: primary human foreskin fibroblasts; actives raise or lower the signal
# Method: BSK_hDFCGF is a cell-based, multiplexed-readout assay that uses foreskin fibroblast, a human skin primary cell, with measurements taken at 24 hours after chemical dosing in a 96-well plate.BSK_hDFCGF_TIMP1 is an assay component measured in the BSK_hDFCGF assay. It measures TIMP-1 antibody related to regulation of gene expression using ELISA technology.Data from the assay component BSK_hDFCGF_TIMP1 was analyzed into 1 assay endpoint. […]
Activity calls are given as the source filed them. The calls were made as follows: active = hit-call score of the fitted dose curve at least 0.9, where 1 is the maximum; inactive = score below 0.9.
Mark one answer only. Choices: 1.0 (active), 0.0 (inactive)

Q. Look up the recorded call for `CCCCCCCCCCCC[N+](C)(C)C` in this test.
A. 0.0

Q. Look up the recorded call for `c1ccc(C[n+]2cccc3ccccc32)cc1` in this test.
A. 0.0

Q. Look up the recorded call for `O=C=NCCCCCCN=C=O` in this test.
A. 0.0

Q. Look up the recorded call for OC12N=C(c3ccccc3)SC1Cc1cc(Cl)ccc12 (configuration not stated) in this test.
A. 0.0

Q. Look up the recorded call for `CC(C)(C)c1cc(/C=C2\SC(N)=NC2=O)cc(C(C)(C)C)c1O` in this test.
A. 1.0

Q. Look up the recorded call for `C[C@]12CC[C@@H]3c4ccc(O)cc4CC[C@H]3[C@@H]1CCC2=O` in this test.
A. 0.0

Q. Look up the recorded call for `CC1=CC(=O)/C(=C(/C)O)C(=O)O1` in this test.
A. 0.0

----------
# test.name: BSK_3C_TissueFactor: BioMAP Diversity Plus: 3C Assay for Tissue Factor Biomarker Activity (AID 2282997)
# protocol.conditions: BioMAP 3C HUVEC, tissue factor biomarker readout; actives raise or lower the signal
The source made the active and inactive calls. Rule for the calls: active = hit-call score of the fitted dose curve at least 0.9, where 1 is the maximum; inactive = score below 0.9.
Mark one answer only. Choices: 1 = active, 0 = inactive

Q. Look up the recorded call for `CN(C[C@@H](CC[N+]12CCC(C3CCCCC3)(CC1)CC2)c1ccc(Cl)c(Cl)c1)C(=O)c1cc(C(F)(F)F)cc(C(F)(F)F)c1` in this test.
A. 1

Q. Look up the recorded call for `CCCCCc1ccc(N)cc1` in this test.
A. 0

Q. Look up the recorded call for `CCCCCCCCOC(=O)c1cc(O)c(O)c(O)c1` in this test.
A. 1

Q. Look up the recorded call for `C[C@]12CC[C@@H]3c4ccc(O)cc4CC[C@H]3[C@@H]1CCC2=O` in this test.
A. 0

Q. Look up the recorded call for `NCc1cccc(C2CCN(C(=O)c3ccc(C#Cc4ccccc4F)o3)CC2)c1` in this test.
A. 1

Q. Look up the recorded call for `CCCCOC(=O)CC(CC(=O)OCCCC)(OC(C)=O)C(=O)OCCCC` in this test.
A. 0

----------
# Read-out: Epidermal growth factor receptor (EGFR), EGFR (gene 1956)
# test.name: BSK_hDFCGF_EGFR: BioMAP Diversity Plus: hDFCGF Assay for Epidermal growth factor receptor (EGFR) Biomarker Activity (AID 2283057)
# protocol.conditions: primary human foreskin fibroblasts; actives raise or lower the signal
The source made the active and inactive calls. Rule for the calls: active = hit-call score of the fitted dose curve at least 0.9, where 1 is the maximum; inactive = score below 0.9.
Mark one answer only. Choices: active, inactive

Q. Look up the recorded call for `CC1=CC(=O)/C(=C(/C)O)C(=O)O1` in this test.
A. inactive

Q. Look up the recorded call for `CC/C(=C(/CC)c1ccc(O)cc1)c1ccc(O)cc1` in this test.
A. inactive

Q. Look up the recorded call for `CC[C@@H]1C[C@H](N(Cc2cc(C(F)(F)F)cc(C(F)(F)F)c2)C(C)=O)c2cc(C(F)(F)F)ccc2N1C(=O)OC(C)C` in this test.
A. inactive

Q. Look up the recorded call for `Cc1c2ccccc2c(C)c2c1ccc1ccccc12` in this test.
A. active

Q. Look up the recorded call for `Cc1ncc(CO)c(CO)c1O` in this test.
A. inactive

Q. Look up the recorded call for `O=C=NCCCCCCN=C=O` in this test.
A. inactive

Q. Look up the recorded call for `O=C(O)Cn1c(=O)n(Cc2ccc(Br)cc2F)c(=O)c2ccc(Cl)cc21` in this test.
A. inactive
